- assay-target: T1, human HVEM:Fc (Fc of human IgG1) (human, UniProt Q92956 39-184)
- T1 construct: range 1-184; Bivalent chimeric protein made with baculovirus vector pVL1392; also called huHVEM:Fc; hu HVEM:Fc; not shown: Fc region of human IgG1
- T1 sequence (looked up): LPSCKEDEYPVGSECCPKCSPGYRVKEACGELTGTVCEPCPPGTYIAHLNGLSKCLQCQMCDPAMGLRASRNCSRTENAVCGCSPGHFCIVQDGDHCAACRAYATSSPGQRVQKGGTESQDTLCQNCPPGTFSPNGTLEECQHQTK
- test-protocol: SPR (BIAcore 1000), receptor:Fc amine-coupled to CM5 chip, LIGHT as analyte 100-500 nM, 25 C
measurement-type: kon (M⁻¹ s⁻¹)
One number for each entry, in M⁻¹ s⁻¹.

For LIGHT t66 Q117T (ligand, not shown: small tags and cut ends, FLAG-tagged point mutant from transiently transfected 293T cells, homotrimer; also called Q11TT) EMVTRLPDGPAGSWEQLIQERRSHEVNPAAHLTGANSSLTGSGGPLLWETTLGLAFLRGLSYHDGALVVTKAGYYYIYSKVQLGGVGCPLGLASTITHGLYKRTPRYPEELELLVSQQSPCGRATSSSRVWWDSSFLGGVVHLEAGEEVVVRVLDERLVRLRDGTRSYFGAFMV , what is its reported kon? 20000
